tested on: SK-MEL-28 melanoma; test: NCI tumour cell line growth inhibition, 48 h
measured metric: GI50

compound	measured metric	observed measurement
CC[Si](CC)(CC)OC1[C@@H](O[Si](CC)(CC)CC)[C@@H](CNC(=O)NC)O[C@H]1n1cnc2c(NC(=O)Nc3ccccc3)ncnc21 (stereo not given in full)	GI50	4.93 µM
O=C(CC1Sc2ccccc2NC1=O)NNc1ccc(F)cc1 (stereo not given)	GI50	> 100 µM
CCOC(=O)CCSC1=CC(=O)c2nc3ccccc3c3ccnc1c23	GI50	20.2 µM
NCCCNc1nc2ccccc2c2c(=O)c3cc(F)cc(Cl)c3sc12	GI50	1.94 µM
Cc1nn(-c2ccccc2)c2nc(C)n(-c3ccc(Br)cc3)c(=O)c12	GI50	3.46 µM

Data provenance: PubChem BioAssay (NCI)
